# SYSTEM TESTED: T1, IL-18 binding protein (IL-18BP) (UniProt O95998 31-194); note: unit not given here
# T1 sequence (looked up): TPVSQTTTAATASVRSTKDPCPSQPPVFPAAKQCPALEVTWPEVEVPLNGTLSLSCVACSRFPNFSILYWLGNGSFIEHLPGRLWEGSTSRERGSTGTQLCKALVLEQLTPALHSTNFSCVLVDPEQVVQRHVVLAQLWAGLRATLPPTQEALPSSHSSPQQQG
# ASSAY TEXT: cell-based or functional assay
# label = Met if Activity, +100 nM BP, DF-5000003 >= 1 else Not met

For orientation, consider the following solved cases.
INSERT INTO measurements (binder, classification) VALUES
  ('IL-18 variant G3R, L5W, E6H, D54Y, Q56H, N91R (ligand) YFRKWHSKLSVIRNLNDQVLFIDQGNRPLFEDMTDSDMRDNAPRTIFIISMYKYSHPRGMAVTISVKSEKISTLSSENKIISFKEMNPPDRIKDTKSDIIFFQRSVPGHDNKMQFESSSYEGYFLASEKERDLFKLILKKEDELGDRSIMFTVQNED', 'Not met'),
  ('IL-18 variant G3L, E6S, D54T, T63S, N91Y, R104Q (ligand) YFLKLSSKLSVIRNLNDQVLFIDQGNRPLFEDMTDSDMRDNAPRTIFIISMYKTSQPRGMAVSISVKSEKISTLSSENKIISFKEMNPPDYIKDTKSDIIFFQQSVPGHDNKMQFESSSYEGYFLASEKERDLFKLILKKEDELGDRSIMFTVQNED', 'Met'),
  ('IL-18 variant G3P, E6K, D54Y, S55P, Q56H, T63S, N91S, R104Q (ligand) YFPKLKSKLSVIRNLNDQVLFIDQGNRPLFEDMTDSDMRDNAPRTIFIISMYKYPHPRGMAVSISVKSEKISTLSSENKIISFKEMNPPDSIKDTKSDIIFFQQSVPGHDNKMQFESSSYEGYFLASEKERDLFKLILKKEDELGDRSIMFTVQNED', 'Met'),
  ('IL-18 variant G3D, E6G, K53G, D54A, T63S, N91Y, R104Q (ligand) YFDKLGSKLSVIRNLNDQVLFIDQGNRPLFEDMTDSDMRDNAPRTIFIISMYGASQPRGMAVSISVKSEKISTLSSENKIISFKEMNPPDYIKDTKSDIIFFQQSVPGHDNKMQFESSSYEGYFLASEKERDLFKLILKKEDELGDRSIMFTVQNED', 'Not met'),
  ('IL-18 variant G3E, E6H, R27S, D54A, S55T, T63S, N91F, R104S (ligand) YFEKLHSKLSVIRNLNDQVLFIDQGNSPLFEDMTDSDMRDNAPRTIFIISMYKATQPRGMAVSISVKSEKISTLSSENKIISFKEMNPPDFIKDTKSDIIFFQSSVPGHDNKMQFESSSYEGYFLASEKERDLFKLILKKEDELGDRSIMFTVQNED', 'Met');

Query block: Could you please find out whether IL-18 variant G3V, E6Q, T34P, D54M, S55F, N91R, R104H (ligand) YFVKLQSKLSVIRNLNDQVLFIDQGNRPLFEDMPDSDMRDNAPRTIFIISMYKMFQPRGMAVTISVKSEKISTLSSENKIISFKEMNPPDRIKDTKSDIIFFQHSVPGHDNKMQFESSSYEGYFLASEKERDLFKLILKKEDELGDRSIMFTVQNED has Activity, +100 nM BP, DF-5000003 that meets 1 or exceeds it?
Result block: Not met

Query block: Item: IL-18 variant G3Q, E6H, K53T, D54S, S55Y, N91Y, R104K (ligand) YFQKLHSKLSVIRNLNDQVLFIDQGNRPLFEDMTDSDMRDNAPRTIFIISMYTSYQPRGMAVTISVKSEKISTLSSENKIISFKEMNPPDYIKDTKSDIIFFQKSVPGHDNKMQFESSSYEGYFLASEKERDLFKLILKKEDELGDRSIMFTVQNED
Result block: Not met
